# measured target: human cloned somatostatin receptor 3 (human) (UniProt P32745)
# Sequence (P32745 whole entry): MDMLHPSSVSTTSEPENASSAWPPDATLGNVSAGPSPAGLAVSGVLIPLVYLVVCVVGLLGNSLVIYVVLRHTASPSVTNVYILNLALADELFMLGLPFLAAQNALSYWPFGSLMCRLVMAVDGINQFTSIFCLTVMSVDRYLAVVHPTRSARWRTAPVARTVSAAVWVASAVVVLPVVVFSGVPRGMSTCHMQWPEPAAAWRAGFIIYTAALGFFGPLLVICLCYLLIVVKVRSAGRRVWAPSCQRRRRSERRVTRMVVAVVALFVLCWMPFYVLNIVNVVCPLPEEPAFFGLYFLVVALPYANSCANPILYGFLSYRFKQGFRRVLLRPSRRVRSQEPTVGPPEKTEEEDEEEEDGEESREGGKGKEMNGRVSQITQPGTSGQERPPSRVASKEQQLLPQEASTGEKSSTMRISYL
# assay protocol: 125I-Tyr11-SRIF-14 displacement
*1 amine or outer side, *2 acyl side, *3 side chain or, on linkers, in order; H or OH if unused. Bridges are numbered along the chain shown (N, C = ends). [ ]: non-standard residue; d: D form. The star is where a group is joined. DOTA = O=C(O)CN1CCN(CC(=O)O)CCN(CC(=O)*)CCN(CC(=O)O)CC1; N(2-mercaptoethyl)Gly = O=C(CN(CCS[*:3])[*:1])[*:2]
assay metric: % displacement at 10 nM

What does the data say about its % displacement at 10 nM? Entry: {DOTA}-F[dF]RCF[dW]KTF[N(2-mercaptoethyl)Gly]-NH2 (disulfide 4-10; SMILES C[C@@H](O)[C@@H]1NC(=O)[C@H](CCCCN)NC(=O)[C@@H](Cc2c[nH]c3ccccc23)NC(=O)[C@H](Cc2ccccc2)NC(=O)[C@@H](NC(=O)[C@H](CCCNC(=N)N)NC(=O)[C@@H](Cc2ccccc2)NC(=O)[C@H](Cc2ccccc2)NC(=O)CN2CCN(CC(=O)O)CCN(CC(=O)O)CCN(CC(=O)O)CC2)CSSCCN(CC(N)=O)C(=O)[C@H](Cc2ccccc2)NC1=O) [SEQ ID NO: 20]
95%
